assay details: Half life was evaluated in dog
Type: ADME, organism-based, Canis lupus familiaris
condition summary: in vivo
endpoint label: half-life (h)
API: value field is a number in h; no unit string.

**Q:** Consider the molecule shown here: CCC[C@H](C)n1c(CC)nc2c(-c3ccc(OC(F)(F)F)cc3Cl)nccc21 What is its recorded half-life?
**A:** 15.1

----------
assay details: pKa value of the compound
Format: physicochemical
endpoint label: pKa
When you answer, write just the number.

**Q:** Consider the compound shown here: CCc1nc2c(-c3ccc(Cl)cc3Cl)ccnc2n1C(CC)C1CC1 (stereo not drawn) What is its recorded pKa?
**A:** 3.86

**Q:** Again, but for CCCC(C)n1c(CC)nc2c(-c3ccc(OC(F)(F)F)cc3Cl)nccc21 (stereo not drawn)
**A:** 5.09

----------
assay details: Maximal plasma concentration at a dose of 1 mg/kg (oral)
Format: ADME, organism-based, Canis lupus familiaris
Set-up: route oral, dose 1 mg/kg
condition summary: dog
endpoint label: Cmax (nM)
API: value field is a number in nM; no unit string.

**Q:** Consider the molecule shown here: CCC[C@H](C)n1c(CC)nc2c(-c3ccc(OC(F)(F)F)cc3Cl)nccc21 What is its recorded Cmax?
**A:** 92.4

----------
Test system: Canis familiaris
assay details: Area under the curve at i.v. dose of 0.2 mg/kg
Assay type: ADME, organism-based, Canis lupus familiaris
Set-up: dose 0.2 mg/kg, route intravenous
condition summary: dog, in vivo, iv
endpoint label: AUC (µM·h)
API: value field is a number in µM·h; no unit string.

**Q:** Hello, I am looking for reported AUC with Canis familiaris for CCC[C@H](C)n1c(CC)nc2c(-c3ccc(OC(F)(F)F)cc3Cl)nccc21 . Could you help?
**A:** 0.341

----------
System: Canis familiaris
assay details: Area under the curve at a dose of 1 mg/kg (oral)
Type: ADME, organism-based, Canis lupus familiaris
Parameters: dose 1 mg/kg
condition summary: dog, in vivo
endpoint label: AUC (µM·h)
API: value field is a number in µM·h; no unit string.

**Q:** Consider the compound shown here: CCC[C@H](C)n1c(CC)nc2c(-c3ccc(OC(F)(F)F)cc3Cl)nccc21 What is its recorded AUC?
**A:** 0.569

----------
system: Corticotropin releasing factor receptor (Rattus norvegicus, UniProt P47866+P35353)
assay details: In vitro binding affinity against Corticotropin releasing factor receptor in rat cortical homogenates
endpoint label: Ki (nM)
API: value field is a number in nM; no unit string.

**Q:** Hello, I am looking for reported Ki with Corticotropin releasing factor receptor (Rattus norvegicus, UniProt P47866+P35353) for CCCC(C)n1c(CC)nc2c(-c3ccc(Cl)cc3Cl)nccc21 (stereo unspecified) . Could you help?
**A:** 3

**Q:** Again, but for CCc1nc2c(-c3ccc(Cl)cc3C(F)(F)F)nccc2n1C(CC)C1CC1 (stereo unspecified)
**A:** 4.4

**Q:** Again, but for CCC[C@@H](C)n1c(CC)nc2c(-c3ccc(OC(F)(F)F)cc3Cl)nccc21
**A:** 1.9

**Q:** Again, but for CCCC(C)n1c(CC)nc2c(-c3ccc(OC(F)F)cc3C)nccc21 (stereo unspecified)
**A:** 9

**Q:** Again, but for CCc1nc2c(-c3ccc(C(F)(F)F)cc3Cl)nccc2n1C(CC)C1CC1 (stereo unspecified)
**A:** 2.9

**Q:** Again, but for CCC[C@H](C)n1c(CC)nc2c(-c3ccc(OC(F)(F)F)cc3Cl)nccc21
**A:** 2.3

**Q:** Again, but for CCCC(C)n1c(CC)nc2c(-c3ccc(C(F)(F)F)cc3Cl)nccc21 (stereo unspecified)
**A:** 3.5

**Q:** Again, but for CCc1nc2c(-c3ccc(C(F)(F)F)cc3Cl)nccc2n1C(CC)CC
**A:** 5.4

**Q:** Again, but for CCc1nc2c(-c3ccc(Cl)cc3C)nccc2n1C(CC)C1CC1 (stereo unspecified)
**A:** 14

**Q:** Again, but for CCCC(C)n1c(CC)nc2c(-c3ccc(OC(F)(F)F)cc3Cl)nccc21 (stereo unspecified)
**A:** 2.8

**Q:** Again, but for CCCC(C)n1c(CC)nc2c(-c3ccc(Cl)cc3C)nccc21 (stereo unspecified)
**A:** 9.1
